Just for reference, patent US11034672B1 is where these values come from.

molecular target: EGFR WT (Homo sapiens, UniProt P00533); test: BaF3 cell proliferation assay, EGFR WT (Table A); type: cell-based; conditions: potency code, 3 days, CellTiterGlo, read-out: EGFR WT (Activity for Inhibiting EGFR)
Sequence (P00533 25-1210 N540K): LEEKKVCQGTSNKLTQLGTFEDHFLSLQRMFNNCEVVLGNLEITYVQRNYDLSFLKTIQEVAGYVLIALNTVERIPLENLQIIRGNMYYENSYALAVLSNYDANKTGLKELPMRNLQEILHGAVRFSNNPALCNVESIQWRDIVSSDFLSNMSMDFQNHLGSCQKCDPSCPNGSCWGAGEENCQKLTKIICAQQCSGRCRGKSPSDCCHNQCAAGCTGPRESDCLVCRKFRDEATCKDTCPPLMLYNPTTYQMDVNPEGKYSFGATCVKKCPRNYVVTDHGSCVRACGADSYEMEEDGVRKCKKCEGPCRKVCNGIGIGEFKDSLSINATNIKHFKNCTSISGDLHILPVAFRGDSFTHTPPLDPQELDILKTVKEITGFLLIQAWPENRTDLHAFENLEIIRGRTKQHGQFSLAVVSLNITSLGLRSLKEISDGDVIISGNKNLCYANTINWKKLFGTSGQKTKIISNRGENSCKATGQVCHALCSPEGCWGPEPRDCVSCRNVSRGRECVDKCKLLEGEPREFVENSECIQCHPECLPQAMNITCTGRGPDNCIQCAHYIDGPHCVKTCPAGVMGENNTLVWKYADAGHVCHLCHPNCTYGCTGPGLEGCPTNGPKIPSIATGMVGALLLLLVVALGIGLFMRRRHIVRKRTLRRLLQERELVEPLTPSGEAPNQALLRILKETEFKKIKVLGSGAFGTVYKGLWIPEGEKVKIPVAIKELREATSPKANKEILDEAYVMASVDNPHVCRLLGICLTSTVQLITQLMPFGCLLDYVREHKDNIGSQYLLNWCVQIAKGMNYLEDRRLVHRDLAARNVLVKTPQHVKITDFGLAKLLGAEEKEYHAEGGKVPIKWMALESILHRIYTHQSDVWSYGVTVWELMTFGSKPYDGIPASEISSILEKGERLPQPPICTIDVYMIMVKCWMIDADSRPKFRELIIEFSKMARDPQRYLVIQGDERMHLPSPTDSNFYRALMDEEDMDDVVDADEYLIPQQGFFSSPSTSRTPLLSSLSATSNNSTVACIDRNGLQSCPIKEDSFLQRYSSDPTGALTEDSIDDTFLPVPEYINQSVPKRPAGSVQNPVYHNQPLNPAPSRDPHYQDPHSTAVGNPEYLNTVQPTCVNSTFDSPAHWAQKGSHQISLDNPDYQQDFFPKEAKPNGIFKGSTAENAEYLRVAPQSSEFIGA
value-kind: IC50

Problem: State its IC50 for this molecule: C=CC(=O)Nc1cc2c(Nc3ccc(OCc4ccnc(C)c4)c(Cl)c3)ncnc2cc1OCCN1CCOCC1
Result: 500 to 1000 nM

Further cases:
Problem: State its IC50 for this molecule: C=CC(=O)Nc1cc2c(Nc3ccc(Oc4ccc(Cl)cc4)cc3)ncnc2cc1OCCN1CCOCC1
Result: > 1000 nM

Problem: State its IC50 for this molecule: C=CC(=O)Nc1cc2c(Nc3ccc(OCc4ccccn4)cc3F)ncnc2cc1OCCN1CCOCC1
Result: 300 to 500 nM

Problem: State its IC50 for this molecule: C=CC(=O)Nc1cc2c(Nc3ccc(OCc4cccc(C)n4)c(Cl)c3)ncnc2cc1OCCN1CC(OC)C1
Result: 300 to 500 nM
